Record form. Attribute: self-cleavage. Fill in for each entry.
B1: LINE1-mini (parent)
chain: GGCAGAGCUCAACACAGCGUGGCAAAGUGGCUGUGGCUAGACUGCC

Variants of: B1
Experiment: self-cleavage, relative activity (ratio to wild type); higher = more cleavage; in vitro, sequencing; the parent is a self-cleaving ribozyme
Please give the numeric answer without any surrounding text.

Query: If you can, please state the reported self-cleavage value of C8A A39C .
Response: 0.32

Query: Look at this variant and give its reported self-cleavage. A6U G33C
Response: 0.43

Query: Quick one: self-cleavage for A25G G36C ?
Response: 0.04

Query: Look up self-cleavage for this variant: G5A G35U
Response: 0.26

Query: Quick one: self-cleavage of G1A U28A ?
Response: 0.26

Query: Tell me the measured self-cleavage of U9C G29C , please.
Response: 0.02

Query: May I ask what self-cleavage has been recorded for A24G C37G ?
Response: 0.1

Query: // query self-cleavage value for entry C13G C23U
Response: 0.46

Query: Dear colleague, I am looking for the recorded self-cleavage of the following variant: G17C A25C
Response: 0.51

Query: What value of measured self-cleavage is listed for G19U U28A ?
Response: 0.63

Query: Sample A4U G33U — what was its self-cleavage?
Response: 0.12

Query: Suppose we examine the variant G2U G19U ; what self-cleavage value has been reported?
Response: 0.05

Query: If you can, please state the reported self-cleavage value of A11C A39C .
Response: 0.02

Query: // returns reported self-cleavage for input C18U G30U
Response: 0.4

Query: What value of self-cleavage has been recorded for this entry: C15G U43C
Response: 0.03

Query: Entry A6C G19A has what self-cleavage?
Response: 1.02

Query: # self-cleavage lookup, item G29U G30A
Response: 1.92

Query: Give the measured self-cleavage of G27U U38G .
Response: 0.03

Query: I have this variant here, G35U U43A , and I need its recorded self-cleavage.
Response: 0.15

Query: Sample G29U G33A — what was its self-cleavage?
Response: 0.1

Query: Which self-cleavage is reported for this variant? A4U G17C
Response: 0.06

Query: Query (variant): A4C G17C ; field requested: self-cleavage
Response: 0.08

Query: Any idea what its self-cleavage is? The variant is A41U G44A
Response: 0.31

Query: Reported self-cleavage for A16G U34C : what is it?
Response: 0.08

Query: Item under review: A4U G29A . Reported self-cleavage?
Response: 0.2

Query: I have this variant here, G22U C42A , and I need its recorded self-cleavage.
Response: 0.28

Query: Which self-cleavage value is on record for G22U G33U ?
Response: 0.28

Query: For the variant shown here, C3G G33C , give the reported self-cleavage.
Response: 0.12

Query: Would you mind telling me what self-cleavage value was observed for A4G A26C ?
Response: 0.63

Query: What value of self-cleavage has been reported for the following variant? C8U U9A
Response: 0.32

Query: Quick one: self-cleavage for G21C G35A ?
Response: 0.16

Query: self-cleavage lookup needed for C10A U32C , thanks.
Response: 0.03

Query: Could you share which self-cleavage value was measured for U28C G29U ?
Response: 0.77

Query: Returns the measured self-cleavage for the input variant. Input: U9A C45A
Response: 0.31

Query: Requested field: self-cleavage. Item: U20A G21U
Response: 0.69
